Where do these numbers come from? They come from paper PMC3984054.

# runDescription: in vivo
# conditionParameters: female, FVB, mouse, po, 10 mg/kg, Cmax ± SD, plasma
measuredMetric: Cmax (µM)
Return type: number; implicit unit µM.

structureNotation | measuredMetric | val
CN1CCN(c2ccc(Nc3ccnc4cc(Cl)ccc34)cc2)CC1 | Cmax | 0.13

Field: next compound
// returns reported Cmax for input `N#Cc1sc2nc(-c3ccc4c(c3)OCO4)ccc2c1N`
0.41

====

# runDescription: in vitro
# conditionParameters: mouse
measuredMetric: CC50

// returns reported CC50 for input COc1ccccc1OCCNCC(O)COc1cccc2[nH]c3ccccc3c12 (stereo not shown)
5 to 6.1 µM

====

Values of CC50 reported for dividing ScN2a-cl3 cells appear below.

Please tell me: CC50 of `CCOc1ccc(/N=N/c2ccc(N)cc2N)cc1` , system dividing ScN2a-cl3 cells?
> 10 µM

Please tell me: CC50 of `COc1ccc2cc1Oc1ccc(cc1)C[C@H]1c3cc(c(OC)cc3CCN1C)Oc1c(OC)c(OC)cc3c1[C@H](C2)N(C)CC3` , system dividing ScN2a-cl3 cells?
5 to 6.1 µM
